Kindly find below IC50 information for ROCK2 (Homo sapiens) taken from the literature.

>  <molecule>
CCc1nc(N2CCN(Cc3cc(F)cc(OC)c3)C2=O)ccc1-c1cn[nH]c1

>  <IC50>
< 2 nM

$$$$
>  <molecule>
CN1CCc2sc(NC(=O)Cc3ccc(Oc4ncccc4C(N)=O)c(F)c3)nc2C1

>  <IC50>
947 nM

$$$$
>  <molecule>
Cc1nc(N2CCN(Cc3ccc(F)c(OCC4CC4)c3)C2=O)ccc1-c1cn[nH]c1

>  <IC50>
20.1 to 200 nM

$$$$
>  <molecule>
O=C(NC1CC2(C1)CC(c1n[nH]c(=O)c3ccccc13)C2)c1ccnn1C1CCOCC1 (stereo not shown)

>  <IC50>
100 to 2100 nM

$$$$
